Entries and their measured shrunken log2 fold change follow.
# Test system: Escherichia coli TOP10
# Measurement Protocol: shrunken log2 fold change of peptide-encoding DNA abundance (4.5 h post-induction vs induction); higher = less antimicrobial activity (less host growth inhibition)
# Assay Setup: time post-induction: 4.5 h; library: site-saturation at positions 5, 18, 19, 20

{"Sequence String": "RRIRIRPPRLPRPRPRPCPFPRP", "Test Target": "Escherichia coli TOP10", "shrunken log2 fold change": -1.38}
{"Sequence String": "RRIRIRPPRLPRPRPRPNTWPRP", "Test Target": "Escherichia coli TOP10", "shrunken log2 fold change": -0.406}
{"Sequence String": "RRIRERPPRLPRPRPRPDRLPRP", "Test Target": "Escherichia coli TOP10", "shrunken log2 fold change": -0.147}
{"Sequence String": "RRIRCRPPRLPRPRPRPNEYPRP", "Test Target": "Escherichia coli TOP10", "shrunken log2 fold change": -0.587}
{"Sequence String": "RRIRMRPPRLPRPRPRPRSDPRP", "Test Target": "Escherichia coli TOP10", "shrunken log2 fold change": 0.722}
{"Sequence String": "RRIRRRPPRLPRPRPRPNYQPRP", "Test Target": "Escherichia coli TOP10", "shrunken log2 fold change": -0.263}
{"Sequence String": "RRIRDRPPRLPRPRPRPFSGPRP", "Test Target": "Escherichia coli TOP10", "shrunken log2 fold change": -0.214}
{"Sequence String": "RRIRGRPPRLPRPRPRPVSVPRP", "Test Target": "Escherichia coli TOP10", "shrunken log2 fold change": 0.624}
{"Sequence String": "RRIRWRPPRLPRPRPRPDFNPRP", "Test Target": "Escherichia coli TOP10", "shrunken log2 fold change": -0.0747}
{"Sequence String": "RRIRTRPPRLPRPRPRPNMGPRP", "Test Target": "Escherichia coli TOP10", "shrunken log2 fold change": -0.0939}
{"Sequence String": "RRIRGRPPRLPRPRPRPRMVPRP", "Test Target": "Escherichia coli TOP10", "shrunken log2 fold change": 0.643}
{"Sequence String": "RRIRIRPPRLPRPRPRPSADPRP", "Test Target": "Escherichia coli TOP10", "shrunken log2 fold change": -0.235}
{"Sequence String": "RRIRIRPPRLPRPRPRPYFMPRP", "Test Target": "Escherichia coli TOP10", "shrunken log2 fold change": -1.21}
{"Sequence String": "RRIRCRPPRLPRPRPRPWRPPRP", "Test Target": "Escherichia coli TOP10", "shrunken log2 fold change": 0.0893}
{"Sequence String": "RRIRYRPPRLPRPRPRPMVYPRP", "Test Target": "Escherichia coli TOP10", "shrunken log2 fold change": -0.00783}

---

# System: Escherichia coli TOP10;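 further: peptides expressed intracellularly from a pBAD plasmid library in pooled LB shake-flask culture, induced with 0.3% L-arabinose, DNA abundance read by NGS, three biological replicates, DESeq2 with apeglm shrinkage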
# Measurement Protocol: shrunken log2 fold change of peptide-encoding DNA abundance (4.5 h post-induction vs induction); higher = less antimicrobial activity (less host growth inhibition)
# Assay Setup: time post-induction: 4.5 h; library: site-saturation at positions 5, 18, 19, 20
Cut-off -0.09 on shrunken log2 fold change, inclusive. At or above means yes; below means no.

{"Sequence String": "RRIRQRPPRLPRPRPRPCNTPRP", "Cat": "no"}
{"Sequence String": "RRIRPRPPRLPRPRPRPHMKPRP", "Cat": "yes"}
{"Sequence String": "RRIRVRPPRLPRPRPRPDSEPRP", "Cat": "no"}
{"Sequence String": "RRIRMRPPRLPRPRPRPLKKPRP", "Cat": "yes"}
{"Sequence String": "RRIRVRPPRLPRPRPRPKGNPRP", "Cat": "yes"}
{"Sequence String": "RRIRCRPPRLPRPRPRPHFEPRP", "Cat": "no"}
{"Sequence String": "RRIRERPPRLPRPRPRPWSPPRP", "Cat": "yes"}
{"Sequence String": "RRIRNRPPRLPRPRPRPHPTPRP", "Cat": "yes"}
{"Sequence String": "RRIRTRPPRLPRPRPRPFRNPRP", "Cat": "yes"}
{"Sequence String": "RRIRGRPPRLPRPRPRPKNNPRP", "Cat": "yes"}
{"Sequence String": "RRIRTRPPRLPRPRPRPNQRPRP", "Cat": "yes"}
{"Sequence String": "RRIRERPPRLPRPRPRPGWGPRP", "Cat": "yes"}
{"Sequence String": "RRIRNRPPRLPRPRPRPWIPPRP", "Cat": "no"}
{"Sequence String": "RRIRRRPPRLPRPRPRPNTLPRP", "Cat": "no"}
{"Sequence String": "RRIRIRPPRLPRPRPRPRDRPRP", "Cat": "yes"}
{"Sequence String": "RRIRSRPPRLPRPRPRPNAVPRP", "Cat": "no"}
{"Sequence String": "RRIRARPPRLPRPRPRPIPGPRP", "Cat": "yes"}
{"Sequence String": "RRIRRRPPRLPRPRPRPMGNPRP", "Cat": "yes"}
{"Sequence String": "RRIRQRPPRLPRPRPRPLGYPRP", "Cat": "yes"}
{"Sequence String": "RRIRSRPPRLPRPRPRPTDWPRP", "Cat": "yes"}
{"Sequence String": "RRIRNRPPRLPRPRPRPCNEPRP", "Cat": "yes"}
{"Sequence String": "RRIRVRPPRLPRPRPRPLQDPRP", "Cat": "no"}
{"Sequence String": "RRIRQRPPRLPRPRPRPLEFPRP", "Cat": "yes"}
{"Sequence String": "RRIRGRPPRLPRPRPRPQIQPRP", "Cat": "yes"}
{"Sequence String": "RRIRQRPPRLPRPRPRPVRTPRP", "Cat": "yes"}
{"Sequence String": "RRIRHRPPRLPRPRPRPLFVPRP", "Cat": "no"}
{"Sequence String": "RRIRWRPPRLPRPRPRPAWVPRP", "Cat": "yes"}
{"Sequence String": "RRIRARPPRLPRPRPRPSYQPRP", "Cat": "no"}
{"Sequence String": "RRIRHRPPRLPRPRPRPWTEPRP", "Cat": "yes"}
{"Sequence String": "RRIRQRPPRLPRPRPRPICRPRP", "Cat": "yes"}
{"Sequence String": "RRIRYRPPRLPRPRPRPCPVPRP", "Cat": "no"}
